- Test system: Plasmodium berghei
- Assay: Screen against P. berghei liver stage (PbLuc), transformed with Luciferase, at 10uM
- Assay type: functional, HepG2
- Measurement conditions: tested at 10 uM
The campaign covered roughly 69,000 compounds. About 8,600 (12%) showed an effect of 50% or more. The sample as a whole holds a higher share of strong results than the screen did.
A collection of compounds and their measured INHIBITION
State the answer as a number, implicitly in %.

Observe how each entry below is paired with its result.
Cn1cc(C(=O)N2CC[C@@H]3[C@@H]2CCN3Cc2cccnc2)cn1 = 10.8
CCc1nc(CC2CN(c3ncnc4nc(C)cc(C)c34)CCO2)no1 (stereo unspecified) = 22
COCCNC(=O)C1CN(Cc2cccc(C)n2)Cc2ccnn2C1 (stereo unspecified) = 7.77

Indicate the recorded INHIBITION value for this compound: O=C(COCCOc1ccccc1)NC1CCN(c2ccccn2)CC1
-10.7

Return value of INHIBITION for input CC(C)C(NC(=O)c1ccc(=O)[nH]c1)c1nnc2n1CCNCC2 (stereo unspecified) , no commentary.
12.6

###

- System: Plasmodium berghei
- Assay: Screen against P. berghei liver stage (PbLuc), transformed with Luciferase, at 10uM
- Format: functional, HepG2
- Measurement conditions: tested at 10 uM
The whole screen tested about 69,000 compounds, of which about 8,600 (12%) showed an effect of 50% or more. For the sample, strong results were picked, then their nearest neighbours and some compounds at random.
Reported property: INHIBITION (%)
Give the number; % is assumed, so skip it.

Cc1c(C(=O)NC2CCCOC2)nnn1-c1ccc(Cl)cc1F (centres undefined) = 55.5
Cn1cccc1CN1CCC2(CC1)CN(c1ccccc1)C(=O)CO2 = -19.5
CCOCC(=O)Nc1nccn1Cc1ccc(Br)cc1 = 45.2
Cc1ccc(CN(Cc2ccccn2)C(=O)C2CCCCCN2C)s1 (centres undefined) = 27.6
CN(C)CC1CSCCCN1C(=O)c1cccc(C(F)(F)F)c1 (centres undefined) = 4.35

Specify the recorded INHIBITION for Cc1ccc(N2CC3(COCCN(Cc4cccnc4)C3)OCC2=O)s1 (centres undefined) , system: Plasmodium berghei.
39.2

Retrieve INHIBITION on Plasmodium berghei; query CCC(CC)CS(=O)(=O)NC(=O)C1CCC1
7.49

###

- Test system: Plasmodium berghei
- Assay: Screen against P. berghei liver stage (PbLuc), transformed with Luciferase, at 10uM
- Format: functional, HepG2
- Measurement conditions: tested at 10 uM
In all, about 69,000 compounds went through this assay and about 8,600 (12%) showed an effect of 50% or more. This excerpt belongs to a sample that is enriched for strong results.
Decide by INHIBITION: equal to or exceeding 20% means TRUE, less means FALSE.

As a guide, the following entries are already answered.
Cc1nc(N2CCN(C(=O)c3cccnc3)CC2)cc(-n2cccc2)n1 = TRUE
CCN(CC1CCOC1)C(=O)c1ccc(N(C)C)cc1F (stereo unspecified) = FALSE
CC(NC(=O)N1CCC1)c1ccc(S(C)(=O)=O)cc1 (stereo unspecified) = FALSE
O=C(c1ccccc1F)N1CCN(c2ccc(-n3cccn3)nn2)CC1 = FALSE
Cn1ccc(C(=O)N2CCc3[nH]nc(Nc4ccccc4)c3C2)n1 = FALSE

Then this compound:
Quick check, INHIBITION >= 20%? Cc1ccc(N2CCO[C@H]3[C@H](OCC(=O)N4CCCC4)CC[C@@H]32)cc1
FALSE

###

Each item that follows carries a reported INHIBITION.
- Tested on: Plasmodium berghei
- Assay: Screen against P. berghei liver stage (PbLuc), transformed with Luciferase, at 10uM
- Type: functional, HepG2
- Measurement conditions: tested at 10 uM
Hit rate of the full screen: of about 69,000 compounds, about 8,600 (12%) showed an effect of 50% or more. The sample holds strong results, similar compounds and a random draw of the others, so the mix is not that of the screen.
Response body: numeric value in %, unit text excluded.

CCS(=O)(=O)N(C)C1CCN(C(=O)c2ccc(C)c(C)c2)CC1 = 27.7

Indicate the recorded INHIBITION value for this compound: O=C(NCC1CCCO1)c1cc(-c2ccncc2)c2cnccc2n1 (stereo unspecified)
-3.02

Return value of INHIBITION for input CCN(C(=O)CCc1ccccc1)C1CC(=O)NC1=O (stereo unspecified) , no commentary.
9.4

Tell me its INHIBITION given CN1CCC(NC(=O)CC2CN(Cc3ccccc3)CCO2)CC1 (stereo unspecified) as the entry.
9.41

For c1ccc(-c2nn3c(CN4CCOCC4)nnc3s2)nc1 , write its INHIBITION.
25.9

# return recorded INHIBITION for input CN(C)C1COC2(CCN(C(=O)c3cccc(Cl)c3)CC2)C1 (stereo unspecified)
-9.74

Please look at this compound and report its INHIBITION: Cc1nccn1CCCN1CCC2(CCC(=O)N(CC3CC3)C2)CC1
34.5

Answer with the recorded INHIBITION for the compound listed here: CNC(=O)c1cc2c(nc1NCC1CC1)CCN(c1ccncn1)CC2
32.4

For the compound CCS(=O)(=O)N(C)C1CCN(C(=O)c2ccc(Cl)cc2)CC1 , give its reported INHIBITION.
47.4

Output measured INHIBITION for this item: O=C(c1ccccc1F)N1CCCC1Cn1c(=O)oc2ccccc21 (stereo unspecified)
-1.4

State, in one line, measured INHIBITION of CCN(C1CCN(C(=O)c2cccc(Cl)c2)CC1)S(C)(=O)=O
50

###

- Tested on: Plasmodium berghei
- Assay: Screen against P. berghei liver stage (PbLuc), transformed with Luciferase, at 10uM
- Assay type: functional, HepG2
- Measurement conditions: tested at 10 uM
Hit rate of the full screen: of about 69,000 compounds, about 8,600 (12%) showed an effect of 50% or more. For the sample, strong results were picked, then their nearest neighbours and some compounds at random.
Exam item: assign 1 to entries whose INHIBITION is below -10% and 0 to entries at or above -10%. Note that a value of exactly -10% receives 0.

Study these solved cases before continuing.
CC[C@H](C)[C@H](N)C(=O)N1CC(=O)c2sc(Nc3ccc(F)cc3)nc2C1 = 0
CC(C)NC(=O)N1CC(=O)c2sc(NC3CCCCC3)nc2C1 = 1
Cc1ccc(OC2CCN(S(=O)(=O)N(C)C)CC2)nc1 = 0
CCN1CC(=O)c2sc(NC(C)C)nc2C1 = 0
Cc1noc(C)c1CN1C[C@@H](OCc2ccccn2)[C@H]2OCCC[C@H]21 = 1

Here's the next entry for you.
Please determine if CCOC(=O)N1CC(=O)N(CCc2ccccc2)CC(O)C1 (stereo unspecified) is below -10% in terms of INHIBITION.
0

###

- System: Plasmodium berghei
- Assay: Screen against P. berghei liver stage (PbLuc), transformed with Luciferase, at 10uM
- Type: functional, HepG2
- Measurement conditions: tested at 10 uM
About 8,600 (12%) of roughly 69,000 compounds showed an effect of 50% or more. The sample as a whole holds a higher share of strong results than the screen did.
So basically every entry gets a class from its INHIBITION, ranges being low class = under 10%, middle class = from 10% up to 40%, high class = 40% and over

Completed entries (count: 8):
CC(C)C(NC(=O)Cn1ccc(=O)n(C)c1=O)c1ccc(F)cc1 (stereo not drawn) = high class
Cc1ccc(S(=O)(=O)NCCc2nnc[nH]2)c2cccnc12 = middle class
CC(=O)Nc1nc(CN2CCOC(Cn3cncn3)C2)cs1 (stereo not drawn) = middle class
Cc1cc(C)nc(C2CCCN2S(=O)(=O)N2CCOCC2)n1 (stereo not drawn) = high class
O=C(O)[C@@H]1CN(C(=O)CCCc2ccc(F)cc2)C[C@H]1C1CC1 = low class
CC(NC(=O)Cn1ccc(=O)n(C)c1=O)c1cc(F)ccc1F (stereo not drawn) = low class
CC(NC(=O)Cn1ccc(=O)n(C)c1=O)c1ccccc1F (stereo not drawn) = low class
Cc1ccc(-c2ccnc(N(C)CC3CCCO3)n2)c(C)n1 (stereo not drawn) = high class

Using the reported INHIBITION, which band applies to COc1ccc(CNc2cccnc2-n2cccn2)c(OC)c1OC ?
high class

Hey, which category is Cc1oncc1C(=O)N1CCC2(CCN(Cc3cccnc3)C2=O)C1 (stereo not drawn) in, do you know?
low class

###

Below, each entry is listed with its recorded INHIBITION.
- Tested on: Plasmodium berghei
- Assay: Screen against P. berghei liver stage (PbLuc), transformed with Luciferase, at 10uM
- Assay type: functional, HepG2
- Measurement conditions: tested at 10 uM
Screen size: about 69,000 compounds; about 8,600 (12%) showed an effect of 50% or more. This excerpt belongs to a sample that is enriched for strong results.
Value expressed in %; do not type the unit.

CCn1ncc2c1CCCC2NCc1ccc2c(c1)CCO2 (centres undefined) = 5.03
CN(C)Cc1csc(-c2nccn2Cc2ccc(C(=O)O)cc2)c1 = 37.4
COc1ccc(CNC(C)Cn2cccn2)c(OC)c1OC (centres undefined) = 25.1
CN(C)Cc1csc(-c2nccn2Cc2ccsc2)c1 = 66.1
Cn1ncc2c1CCCC2NCc1cnc(-c2ccccc2)nc1 (centres undefined) = 33

Pending compound:
Provide INHIBITION value for the following compound: Cc1nn(C)c(Oc2cccc(F)c2)c1NC(=O)C1CCOCC1
62.9

src = ChEMBL document CHEMBL4513216
